# TARGET_SYSTEM: Histamine H2 receptor (Homo sapiens, UniProt P25021); further: assay procedure not described here
# Sequence (P25021 whole entry): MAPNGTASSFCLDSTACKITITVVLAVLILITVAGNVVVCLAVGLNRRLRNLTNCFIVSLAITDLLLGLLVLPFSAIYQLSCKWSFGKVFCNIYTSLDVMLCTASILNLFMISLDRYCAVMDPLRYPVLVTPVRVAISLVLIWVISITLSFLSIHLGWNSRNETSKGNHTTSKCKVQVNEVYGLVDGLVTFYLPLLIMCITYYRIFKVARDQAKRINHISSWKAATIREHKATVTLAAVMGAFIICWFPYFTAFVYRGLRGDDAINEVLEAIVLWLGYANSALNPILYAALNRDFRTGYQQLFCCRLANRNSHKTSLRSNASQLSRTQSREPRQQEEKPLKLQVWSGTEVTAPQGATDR
# Format: functional, cell-based
TEST_READOUT: AC50

MOLECULE | RESULT
CN(Cc1ccc(C(C)(C)C)cc1)Cc1cccc2ccccc12 | > 10 µM
CO/N=C(\C(=O)N[C@@H]1C(=O)N2C(C(=O)[O-])=C(C[n+]3ccc(N)n3CCO)CS[C@H]12)c1csc(N)n1 | > 30 µM
CC1CC(OC(=O)C(O)c2ccccc2)CC(C)(C)C1 (centres undefined) [CYCLANDELATE] | > 10 µM
CN(C)CCOC(c1ccc(Cl)cc1)c1ccccn1 (centres undefined) | > 30 µM
CCC(=O)[C@@]1(C)[C@H](C)C[C@H]2[C@@H]3CCC4=CC(=O)C=C[C@]4(C)[C@H]3[C@@H](O)C[C@@]21C [RIMEXOLONE] | > 10 µM
C[C@H](Cn1cnc2c(N)ncnc21)OCP(=O)(O)O [TENOFOVIR ANHYDROUS] | > 30 µM
CCC(NC(C)C)C(O)c1ccc(O)c(O)c1 (centres undefined) | > 30 µM
CCOC(=O)[C@H](CCc1ccccc1)N[C@@H](C)C(=O)N1Cc2ccccc2C[C@H]1C(=O)O | > 10 µM
CCc1ccc(C(=O)C(C)CN2CCCCC2)cc1 (centres undefined) | > 30 µM
